Answer each item with its documented selectivity ratio.
assay: Selectivity index, ratio of CC50 for MDCK cells to IC50 for Influenza A virus (A/California/07/2009(H1N1)) infected in MDCK cells; assay type: toxicity, cell-based; settings: dog, read-out: Ratio CC50/IC50
One number for each entry.

Count: 3. Required value per item: selectivity ratio.
1. CCOC(=O)c1c(O)nc(-c2ccc([N+](=O)[O-])cc2)n1O
2. CCOC(=O)c1c(O)nc(-c2cccc([N+](=O)[O-])c2)n1O
3. CCOC(=O)c1c(O)nc(-c2ccccc2)n1O

A)
1. 1.8
2. 2.9
3. 1.9

* * *

experiment: Cytotoxicity against African green monkey Vero cells measured after 4 days by colorimetric assay; assay type: toxicity, cell-based; conditions: chlorocebus sabaeus, Vero cells; time 4 day
READOUT_LABEL: CC50 at 96 h (µM)
Numbers only, in µM.

> print(dat)
                            smiles.notation  observed
1  CCCCNC(=O)c1c(O)nc(-c2ccc([N+](=O)[O-])cc2)n1O       201
2         CCCCNC(=O)c1c(O)nc(-c2ccccc2O)n1O       197

Okay, next one:
Q) If you can, please state the reported CC50 at 96 h value of `O=C(NC1CC1)c1c(O)nc(-c2ccc(C(F)(F)F)cc2)n1O` .
A) 202

Source listed as ChEMBL document CHEMBL5223146.
